# particulars: rat, in vivo, sc, 50 mg/kg
e = 2'-O-(2-methoxyethyl) (MOE); d = 2'-deoxy (DNA)
Each entry below lists one item and its recorded monocytes value.
measurement_name: monocytes (%)

>>> observed_value("ISIS 416826: 5-10-5 MOE gapmer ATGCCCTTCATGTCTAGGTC (sugars from the 5' end e5 d10 e5, backbone and methylation of C not given here)")
7
>>> observed_value("ISIS 416999: MOE gapmer, nucleobases 1275 to 1318 of SEQ ID NO: 1 (Table 8) (antisense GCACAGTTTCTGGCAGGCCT; MOE gapmer, wing and gap sizes not given here)")
20
>>> observed_value("ISIS 417003: MOE gapmer, nucleobases 1275 to 1318 of SEQ ID NO: 1 (Table 8) (antisense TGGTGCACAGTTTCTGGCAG; MOE gapmer, wing and gap sizes not given here)")
6
>>> observed_value("ISIS 416925: MOE gapmer, nucleobases 1275 to 1318 of SEQ ID NO: 1 (Table 8) (antisense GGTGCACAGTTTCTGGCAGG; MOE gapmer, wing and gap sizes not given here)")
23
>>> observed_value("ISIS 416892: 3-14-3 MOE gapmer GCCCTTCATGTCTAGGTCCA (sugars from the 5' end e3 d14 e3, backbone and methylation of C not given here)")
58
>>> observed_value("ISIS 416825: 5-10-5 MOE gapmer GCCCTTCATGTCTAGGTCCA (sugars from the 5' end e5 d10 e5, backbone and methylation of C not given here)")
15

----------
# test: Tolerability in CD1 mice: organ weight (Example 33)
# Format: in vivo
# particulars: 50 mg/kg s.c. twice a week, 4 weeks, vs PBS control, normalized to body weight
The entries below are paired with their reported Percent change in kidney weight.
measurement_name: Percent change in kidney weight

>>> observed_value("416892 (antisense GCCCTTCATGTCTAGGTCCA; 3-14-3 chimeric gapmer, further chemistry not given here) [compound 416892]")
"−3%"
>>> observed_value("416864 (antisense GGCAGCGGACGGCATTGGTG; 5-10-5 gapmer, further chemistry not given here) [compound 416864]")
"−9%"
>>> observed_value("417003 (antisense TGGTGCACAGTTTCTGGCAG; 2-13-5 gapmer chemistry, further chemistry not given here) [compound 417003]")
"−2%"
>>> observed_value("416838 (antisense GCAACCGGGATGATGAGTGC; 5-10-5 gapmer, further chemistry not given here) [compound 416838]")
"−12%"
>>> observed_value("417002 (antisense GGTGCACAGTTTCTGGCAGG; 2-13-5 gapmer chemistry, further chemistry not given here) [compound 417002]")
"−5%"
>>> observed_value("416925 (antisense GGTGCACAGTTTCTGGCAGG; 3-14-3 gapmer chemistry, further chemistry not given here) [compound 416925]")
"−14%"
>>> observed_value("416825 (antisense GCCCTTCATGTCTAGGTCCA; 5-10-5 gapmer, further chemistry not given here) [compound 416825]")
"−12%"
>>> observed_value("416999 (antisense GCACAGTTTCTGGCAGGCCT; 2-13-5 gapmer chemistry, further chemistry not given here) [compound 416999]")
"−6%"
>>> observed_value("416826 (antisense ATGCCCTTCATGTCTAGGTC; 5-10-5 gapmer, further chemistry not given here) [compound 416826]")
"−7%"
>>> observed_value("416850 (antisense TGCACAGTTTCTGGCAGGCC; 5-10-5 gapmer, further chemistry not given here) [compound 416850]")
"−12%"
>>> observed_value("416858 (antisense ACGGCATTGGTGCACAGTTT; 5-10-5 gapmer, further chemistry not given here) [compound 416858]")
"−18%"

----------
# Test system: blood coagulation
# test: PT and aPTT assay in cynomolgus monkeys (Example 45)
# Format: in vivo
# particulars: day −5; escalating dose regimen; platelet poor plasma
# Procedure: Groups, each consisting of two male and three female monkeys, were injected subcutaneously with ISIS 416838, ISIS 416850, ISIS 416858, ISIS 416864, or ISIS 417002 in escalating doses. […] Body weights were measured weekly. […] Blood samples were collected in tubes containing sodium citrate. PT and aPTT were determined in duplicate with an ACL 9000 coagulation instrument (Instrumentation Laboratory, Italy). […]
measurement_name: aPTT ratio (INR)

>>> observed_value("ISIS 417002: MOE gapmer, nucleobases 1275 to 1318 of SEQ ID NO: 1 (Table 8) (antisense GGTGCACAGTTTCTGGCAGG; MOE gapmer, wing and gap sizes not given here)")
1.00
>>> observed_value("ISIS 416858: MOE gapmer, nucleobases 1275 to 1318 of SEQ ID NO: 1 (Table 8) (antisense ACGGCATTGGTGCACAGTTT; MOE gapmer, wing and gap sizes not given here)")
1.00
>>> observed_value("ISIS 416864: MOE gapmer, nucleobases 1275 to 1318 of SEQ ID NO: 1 (Table 8) (antisense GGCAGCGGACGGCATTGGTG; MOE gapmer, wing and gap sizes not given here)")
1.00

----------
# test: Hematology assays in cynomolgus monkeys (Example 45)
# Assay type: in vivo
# particulars: day 64; escalating dose regimen
# Protocol: Groups, each consisting of two male and three female monkeys, were injected subcutaneously with ISIS 416838, ISIS 416850, ISIS 416858, ISIS 416864, or ISIS 417002 in escalating doses. […] Body weights were measured weekly. […]
measurement_name: RBC count (µL⁻¹)

>>> observed_value("ISIS 417002: MOE gapmer, nucleobases 1275 to 1318 of SEQ ID NO: 1 (Table 8) (antisense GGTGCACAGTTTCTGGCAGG; MOE gapmer, wing and gap sizes not given here)")
"5.4e+06"
>>> observed_value("ISIS 416850: MOE gapmer, nucleobases 1275 to 1318 of SEQ ID NO: 1 (Table 8) (antisense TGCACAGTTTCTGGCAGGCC; MOE gapmer, wing and gap sizes not given here)")
"5.4e+06"
>>> observed_value("ISIS 416864: MOE gapmer, nucleobases 1275 to 1318 of SEQ ID NO: 1 (Table 8) (antisense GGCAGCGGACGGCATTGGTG; MOE gapmer, wing and gap sizes not given here)")
"5.6e+06"
>>> observed_value("ISIS 416838: MOE gapmer, nucleobases 1018 to 1042 of SEQ ID NO: 1 (Table 6) (antisense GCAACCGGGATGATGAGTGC; MOE gapmer, wing and gap sizes not given here)")
"5.6e+06"
>>> observed_value("ISIS 416858: MOE gapmer, nucleobases 1275 to 1318 of SEQ ID NO: 1 (Table 8) (antisense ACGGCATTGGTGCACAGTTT; MOE gapmer, wing and gap sizes not given here)")
"5.7e+06"

----------
A collection of substances and their measured % inhibition
# Test system: human Factor 11 mRNA
# test: Antisense inhibition of human Factor 11 in HepG2 cells by microwalk gapmers, lipofectin, 75 nM (Example 3)
# Type: cell-based
# particulars: HepG2 cells, lipofectin, gapmers targeted to nucleobases 1275 to 1318 of SEQ ID NO: 1
Strand notation (5' to 3'): a small letter for the sugar, then the base; units joined by * are phosphorothioate-linked, units joined directly phosphodiester-linked; [ ] holds rarer units or linkages, { } end groups; capitals alone tell only the bases. e = 2'-O-(2-methoxyethyl) (MOE); [5mC] = 5-methylcytosine; d = 2'-deoxy (DNA)
measurement_name: % inhibition (%)

>>> observed_value("416921 (antisense e[5mC]*eA*e[5mC]*dA*dG*dT*dT*dT*d[5mC]*dT*dG*dG*d[5mC]*dA*dG*dG*d[5mC]*e[5mC]*eT*e[5mC]) [compound 416921]")
88
>>> observed_value("416922 (antisense eG*e[5mC]*eA*d[5mC]*dA*dG*dT*dT*dT*d[5mC]*dT*dG*dG*d[5mC]*dA*dG*dG*e[5mC]*e[5mC]*eT) [compound 416922]")
94
>>> observed_value("416848 (antisense CACAGTTTCTGGCAGGCCTC; 5-10-5 gapmer, further chemistry not given here) [compound 416848]")
86
>>> observed_value("416940 (antisense eG*e[5mC]*eA*dG*d[5mC]*dG*dG*dA*d[5mC]*dG*dG*d[5mC]*dA*dT*dT*dG*dG*eT*eG*e[5mC]) [compound 416940]")
92
>>> observed_value("416860 (antisense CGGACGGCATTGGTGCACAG; 5-10-5 gapmer, further chemistry not given here) [compound 416860]")
88
>>> observed_value("416942 (antisense eT*eG*eG*d[5mC]*dA*dG*d[5mC]*dG*dG*dA*d[5mC]*dG*dG*d[5mC]*dA*dT*dT*eG*eG*eT) [compound 416942]")
85
>>> observed_value("417010 (antisense eA*e[5mC]*dG*dG*d[5mC]*dA*dT*dT*dG*dG*dT*dG*d[5mC]*dA*d[5mC]*eA*eG*eT*eT*eT) [compound 417010]")
81
>>> observed_value("417000 (antisense eT*eG*d[5mC]*dA*d[5mC]*dA*dG*dT*dT*dT*d[5mC]*dT*dG*dG*d[5mC]*eA*eG*eG*e[5mC]*e[5mC]) [compound 417000]")
89
>>> observed_value("416862 (antisense eA*eG*e[5mC]*eG*eG*dA*d[5mC]*dG*dG*d[5mC]*dA*dT*dT*dG*dG*eT*eG*e[5mC]*eA*e[5mC]) [compound 416862]")
90
>>> observed_value("416924 (antisense eG*eT*eG*d[5mC]*dA*d[5mC]*dA*dG*dT*dT*dT*d[5mC]*dT*dG*dG*d[5mC]*dA*eG*eG*e[5mC]) [compound 416924]")
96
>>> observed_value("416934 (antisense eG*eA*e[5mC]*dG*dG*d[5mC]*dA*dT*dT*dG*dG*dT*dG*d[5mC]*dA*d[5mC]*dA*eG*eT*eT) [compound 416934]")
90
